system: IGROV1 ovarian; assay: NCI tumour cell line growth inhibition, 48 h
valueKind: TGI

Examples with answers:
O=C(Cn1ccnc1[N+](=O)[O-])c1ccccc1    > 100 µM
[N-]=[N+]=Nc1ccccc1Oc1ccccc1    > 100 µM
c1ccc2c(c1)nc1n2sc2nc3ccccc3n21    > 100 µM
OC1(c2ccccc2)c2ccccc2NC2=NCCN21 (stereo unspecified)    > 100 µM
O=C(O)c1cc(C(=O)O)nc(C(=O)O)c1    > 100 µM

Proceed to the following item.
q: # lookup: TGI of O=c1[nH]c(=O)n(C2CC(O)C(CO)O2)c2nc3cc4ccccc4cc3nc12 (stereo unspecified)
a: > 100 µM
